Value source: the supplement of paper PMC8612539

System: Escherichia coli
experiment: minimum inhibitory concentration (MIC)
condition.notes: isolate (source animal id): 156
property.name: minimum inhibitory concentration

smiles	target.of.assay	result
CO/N=C(\C(=O)N[C@@H]1C(=O)N2C(C(=O)O)=C(CSC(=O)c3ccco3)CS[C@H]12)c1csc(N)n1	Escherichia coli	8 µg/mL
CCCNC[C@]1(O)[C@H](C)O[C@@H](O[C@H]2[C@H](C)[C@@H](O[C@@H]3O[C@H](C)C[C@H](N(C)C)[C@H]3O)[C@](C)(O)C[C@@H](C)CN[C@H](C)[C@@H](O)[C@](C)(O)[C@@H](CC)OC(=O)[C@@H]2C)C[C@@]1(C)OC	Escherichia coli	≤ 8 µg/mL
CN1C[C@@H]2C[C@H]1CN2c1cc2c(cc1F)c(=O)c(C(=O)O)cn2C1CC1	Escherichia coli	0.5 µg/mL
CC[C@H]1OC(=O)C[C@@H](O)[C@H](C)[C@@H](O[C@@H]2O[C@H](C)[C@@H](O)[C@H](N(C)C)[C@H]2O)[C@@H](CCN2C[C@H](C)C[C@H](C)C2)C[C@@H](C)C(=O)/C=C/C(C)=C/[C@@H]1CO[C@@H]1O[C@H](C)[C@@H](O)[C@@H](OC)[C@H]1OC	Escherichia coli	> 16 µg/mL
CC1(C)S[C@@H]2[C@H](NC(=O)Cc3ccccc3)C(=O)N2[C@H]1C(=O)O	Escherichia coli	> 8 µg/mL
CN[C@@H]1[C@H](O)[C@H](NC)[C@H]2O[C@@]3(O)C(=O)C[C@@H](C)O[C@H]3O[C@@H]2[C@H]1O	Escherichia coli	> 64 µg/mL
CC[C@H]1OC(=O)C[C@@H](O)[C@H](C)[C@@H](O[C@@H]2O[C@H](C)[C@@H](O[C@H]3C[C@@](C)(O)[C@@H](O)[C@H](C)O3)[C@H](N(C)C)[C@H]2O)[C@@H](CC=O)C[C@@H](C)C(=O)/C=C/C(C)=C/[C@@H]1CO[C@@H]1O[C@H](C)[C@@H](O)[C@@H](OC)[C@H]1OC	Escherichia coli	> 32 µg/mL
NC[C@@H]1O[C@H](O[C@H]2[C@@H](O)[C@H](O[C@@H]3[C@@H](O)[C@H](N)C[C@H](N)[C@H]3O[C@H]3O[C@H](CN)[C@@H](O)[C@H](O)[C@H]3N)O[C@@H]2CO)[C@H](N)[C@@H](O)[C@@H]1O	Escherichia coli	> 32 µg/mL

* * *

Test system: Enterococcus spp.
experiment: minimum inhibitory concentration (MIC)
condition.notes: isolate (source animal id): 341
property.name: minimum inhibitory concentration

molecule	result
NC[C@@H]1O[C@H](O[C@H]2[C@@H](O)[C@H](O[C@@H]3[C@@H](O)[C@H](N)C[C@H](N)[C@H]3O[C@H]3O[C@H](CN)[C@@H](O)[C@H](O)[C@H]3N)O[C@@H]2CO)[C@H](N)[C@@H](O)[C@@H]1O [Neomycin]	> 32 mg/L
CCC[C@@H]1C[C@@H](C(=O)N[C@@H]([C@H]2O[C@H](SC)[C@H](O)[C@@H](O)[C@H]2O)[C@H](C)Cl)N(C)C1 [Clindamycin]	> 16 mg/L
CCCNC[C@]1(O)[C@H](C)O[C@@H](O[C@H]2[C@H](C)[C@@H](O[C@@H]3O[C@H](C)C[C@H](N(C)C)[C@H]3O)[C@](C)(O)C[C@@H](C)CN[C@H](C)[C@@H](O)[C@](C)(O)[C@@H](CC)OC(=O)[C@@H]2C)C[C@@]1(C)OC [Tulathromycin]	> 64 mg/L
CC[C@H]1OC(=O)C[C@@H](O)[C@H](C)[C@@H](O[C@@H]2O[C@H](C)[C@@H](O)[C@H](N(C)C)[C@H]2O)[C@@H](CCN2C[C@H](C)C[C@H](C)C2)C[C@@H](C)C(=O)/C=C/C(C)=C/[C@@H]1CO[C@@H]1O[C@H](C)[C@@H](O)[C@@H](OC)[C@H]1OC [Tilmicosin]	> 16 mg/L
CC1(C)S[C@@H]2[C@H](NC(=O)Cc3ccccc3)C(=O)N2[C@H]1C(=O)O [Penicillin]	2 mg/L
COc1cc(Cc2cnc(N)nc2N)cc(OC)c1OC.Cc1cc(NS(=O)(=O)c2ccc(N)cc2)no1 [trimethoprim-sulfamethoxazole]	> 2 mg/L
C=C[C@]1(C)C[C@@H](OC(=O)CSCCN(CC)CC)[C@]2(C)[C@H](C)CC[C@]3(CCC(=O)[C@H]32)[C@@H](C)[C@@H]1O [Tiamulin]	> 32 mg/L
